Target: HLA DQ molecule DQB1*0202 (human)
Test: inhibition of radiolabeled peptide binding to purified HLA class II
Overview of recorded pIC50 for various binders
Please express pIC50 as -log10 of the molar concentration.

- PAAAYATATPAAATA [Lol p 5 1 peptide, position 306, PAAAYATATPAAATA (Peptide ID 3324.1184)]: 6.17

Query: Form field: reported pIC50 of LIEKINAGFKAAVAA [Lol p 5 1 peptide, position 71, LIEKINAGFKAAVAA (Peptide ID 3324.1175)]
Reply: 4.30
